# Target entity: T1, human BR3 extracellular domain (human, UniProt Q96RJ3 1-61)
# T1 construct: biotinylated where used as tracer; also called hBR3-ECD; BR3-ECD
# Test protocol: SPR, IgG on chip, BR3 ECD in solution
Measured pKd values are reported for all entries that follow.
Convention used: pKd is expressed as -log10 of the molar concentration.

Here is how some binders turned out for pKd.
* Hu2.1-30 IgG (antibody, V domains shown, humanized IgG; also called h2.1-30) VH: EVQLVESGGGLVQPGGSLRLSCAASGDSITRGYWNWVRQAPGKGLEWVGYINYSGTTYYNPSLKSRFTISRDTSKNTFYLQMNSLRAEDTAVYYCANLNYYGAMDYWGQGTLVTVSS VL: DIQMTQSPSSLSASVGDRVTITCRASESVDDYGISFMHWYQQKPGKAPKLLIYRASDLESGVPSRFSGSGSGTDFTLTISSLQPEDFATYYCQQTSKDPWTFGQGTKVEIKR | 10.70
* mV3-46s IgG (antibody, V domains shown, IgG on chip) VH: EVQLVESGGGLVQPGGSLRLSCAASGFTISSSSIHWVRQAPGKGLEWVAWVLPSVGFTDYADSVKGRFTISADTSKNTAYLQMNSLRAEDTAVYYCARRVCYNRLGVCAGGMDYWGQGTLVTVSS VL: DIQMTQSPSSLSASVGDRVTITCRASQDVSTAVAWYQQKPGKAPKLLIYSASFLYSGVPSRFSGSGSGTDFTLTISSLQPEDFATYYCQQSQISPPTFGQGTKVEIKR | 10.70

Now for another entry.
Asked: Entry under review: V3-1m (antibody, mouse IgG2a, V domains shown, also called mV3-1; V3-1 (IgG)) VH: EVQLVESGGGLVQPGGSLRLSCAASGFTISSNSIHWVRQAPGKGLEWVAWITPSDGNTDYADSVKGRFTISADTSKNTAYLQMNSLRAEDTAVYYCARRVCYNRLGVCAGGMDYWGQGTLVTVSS VL: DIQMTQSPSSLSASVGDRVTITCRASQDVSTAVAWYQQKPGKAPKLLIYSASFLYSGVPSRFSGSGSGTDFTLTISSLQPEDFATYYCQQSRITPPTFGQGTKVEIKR . Reported pKd?
Given back: 9.19
